All values here come from PubChem BioAssay (NCI).

Assay: NCI Yeast Anticancer Drug Screen. Data for the cln2 rad14 strain (AID 165);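 note: 0% = growth equal to vehicle treated cultures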
Details: S. cerevisiae cln2 rad14 strain, at 50.0 µM, stronger effect = higher value
Compounds without any hit were thinned out: in the full panel of roughly 79,000, 15% have a hit.
For each record, write down the corresponding growth inhibition.
# unit: % | format: bare number

# growth inhibition of CC1c2ccccc2Cn2cc3c(c21)C(=O)c1cccc(OP(=O)(O)OCc2ccccc2)c1C3=O (stereo unspecified) = 3.45

Entry under test: CCCCCC/C=C1\CCC(CN(C)C)C1=O (stereo unspecified) . Its growth inhibition was 89.8

// field: growth inhibition; key: CCCC(=O)OC1C(CO)OC(n2cc(F)c(=O)[nH]c2=O)C1F (stereo unspecified) ; value = -15.7

Entry O=C1NC(=O)C(=CN2C(=O)/C(=C/c3ccc([N+](=O)[O-])cc3)SC2=S)C(=O)N1 — recorded growth inhibition = 20.4

The measured growth inhibition associated with NNC(=O)C(=O)O reads -15

The measured growth inhibition associated with CC(C)(C)C(=CS(=O)/N=C/c1ccccc1)C(C)(C)C (stereo unspecified) reads -7

Briefly, growth inhibition measured for CCCCCCC1OCCC(C)O1 (stereo unspecified) : -10.3

get_value(item= COc1ccc(C(O)C(c2ccc(OCc3ccccc3)cc2)c2ccc(OCc3ccccc3)cc2)cc1 (stereo unspecified) , readout=growth inhibition) returns -4.25

// growth inhibition value for O=C(Nc1ccccc1)Oc1ccccc1C1CCCCC1 : 16.8

Entry CC1=NN(C(=O)CC(=O)Nc2ccc(C(=O)O)cc2)C(=O)C1N=Nc1ccccc1C(=O)O (stereo unspecified) ; growth inhibition = -6.5

# growth inhibition (molecule: O=[N+]([O-])c1cc(C(F)(F)F)ccc1F ) is -25.8

====

Test: NCI Yeast Anticancer Drug Screen. Data for the mlh1 rad18 strain (AID 175)
Settings: S. cerevisiae mlh1 rad18 strain growth inhibition; at 50.0 µM; stronger effect = higher value
This is part of a sample that, as a whole, favours compounds with a hit. Of some 79,000 tested, about 15% had one in any assay.
For each record, write down the corresponding growth inhibition.
Note: unit % is implicit; provide only the numeric part.

Form: molecule = Cc1nn(C(=O)c2ccccn2)c(-c2ccccc2)c1N=Nc1ccc(S(=O)(=O)Nc2ncccn2)cc1 ; growth inhibition = 40.4

Entry under test: C[N+](C)(C)Cc1ccc2ccccc2c1CC(O)(c1ccccc1)c1ccccc1 . Its growth inhibition was 9.8

According to the records, this molecule CC(C)CCN(C(=O)CCl)c1ccccc1 displays growth inhibition of 63.8

response.value for CS(=O)(=O)CC(=O)c1ccc(O)cc1O (field: growth inhibition) = -7

GET /value?item= CC(C)C1c2ccccc2C(=O)C1C(N)=O (stereo unspecified) &field=growth inhibition returns -10.4

Reported growth inhibition for C=CC1CNCCC1CCC(=O)c1ccnc2ccc(OC)cc12 (stereo unspecified) was 4.4

====

Record form. Attribute: growth inhibition. Fill in for each entry.
Assay: NCI Yeast Anticancer Drug Screen. Data for the bub3 strain (AID 167)
Conditions: S. cerevisiae bub3 mutant strain, at 50.0 µM, stronger effect = higher value
About 79,000 compounds went through this panel and 15% of them were active in at least one assay; those are over-represented in the sample as a whole.
Value expressed in %; do not type the unit.

Notebook: CN1C(=O)N/C(=C\c2ccc(S(=O)(=O)N/N=C/c3ccccc3)cc2)C1=O , growth inhibition read as 2.75

Item: COc1cc(NCCN=C(N)NC#N)c2ncccc2c1 | growth inhibition: -15.4

// sample Cc1c(C)c(C)c(S(=O)(=O)NCCCNS(=O)(=O)c2c(C)c(C)c(C)c(C)c2C)c(C)c1C , its growth inhibition was -4.95

# molecule O=c1cnn(C2OC(CO)C(O)C2O)c(=S)[nH]1 (stereo not drawn) ; its growth inhibition = 26.1

The molecule listed as O=C(O)c1ccccc1NC(C(=O)O)c1ccccc1 (stereo not drawn) has a reported growth inhibition of -18.9

Reported growth inhibition ( CC(=O)Nc1cc(-c2ccccc2)ccc1O ) = 40.2

For reference, reported growth inhibition for CCOC(=O)CCc1ccc(NC(=O)/C=C/c2ccc([N+](=O)[O-])o2)cc1 stands at 34.8

Record summary for C[C@]12C(=O)C=CCC1=CC[C@@H]1[C@@H]2[C@H]2CC3(O)C(=O)O[C@@]4(C)[C@H]5C[C@@]6(C)[C@@H]7[C@@]2(O)[C@]1(OC[C@H]6C(=O)O5)O[C@]734 (stereo partly drawn) : reported growth inhibition = -22.4

molecule O=C(O)c1ccc([C@@H]2C(=O)N(O)[C@@H]3C=CC[C@@H]32)cc1 , growth inhibition observed: -14.7

Record CCCC(=O)OCC1OC(n2ccc(N)nc2=O)C(OC(=O)CCC)C1OC(=O)CCC (stereo not drawn) . Reported growth inhibition: 10.6

CCOc1ccc(/C(Cl)=C(\C=O)c2ccc(OC)c(OC)c2)cc1OCC has a reported growth inhibition of -3.6

Entry under test: O=C(CSSCC(=O)Nc1ccccc1O)Nc1ccccc1O . Its growth inhibition was 27.2

// growth inhibition value for Cc1nc(Nc2ccccc2)c(C#N)c(=O)[nH]1 : -2.95

Value of measured growth inhibition for the entry NN1C(=O)CC(c2cccc(Cl)c2)C1=O (stereo not drawn) : -2.6

The recorded growth inhibition for Cc1[nH]c(=O)[nH]c1C(=O)c1ccc(-n2ccnc2)cc1 is 5.25

get_value(item= O=C(c1ccc(Cl)cc1)c1nnc(Cl)s1 , readout=growth inhibition) returns 24.8

Quick note, growth inhibition for CCC(CC)C(=O)OCCCc1ccccc1 landed at 11.9

Measured growth inhibition, COc1cc(NCC2COc3c(ccc(OC)c3OC)C2=O)c([N+](=O)[O-])cc1OC (stereo not drawn) : -5.3

Sure, the documented growth inhibition for COC(=O)C1CCc2ccccc2C1=O (stereo not drawn) is 2.7

The molecule identified as O=S(=O)(OCCCCCCCCCCOS(=O)(=O)c1ccc(Cl)cc1)c1ccc(Cl)cc1 registered its growth inhibition at -5.3

Note to self: growth inhibition recorded for ClCCCOC1CCCCO1 (stereo not drawn) was -7.6

Lookup result for CC1(C)C2CCC1(C)C(S)C2 (stereo not drawn) ; measured growth inhibition: -2

For CN(C)c1ccc(C2N(C)CCN2C)cc1 the molecule record lists growth inhibition as -7.5

====

Assay: NCI Yeast Anticancer Drug Screen. Data for the rad50 strain (AID 155);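 note: 0% = growth of vehicle-only cultures of the same strain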
Details: S. cerevisiae rad50 strain growth inhibition; at 50.0 µM
About 79,000 compounds went through this panel and 15% of them were active in at least one assay; those are over-represented in the sample as a whole. The source made the active and inactive calls. No stated cut-off is given here; in the data, active means growth inhibition above about 70%; inactive means the rest.
Hi! Could you answer with just one of these? active, inactive

Q: Please share the test call associated with Cc1cc(Cl)ccc1N1C(=O)C(=O)C(c2nc3ccccc3s2)/C(=N\NC(=O)c2ccccc2O)C1=O (centres undefined) .
Result: inactive

Q: Recorded test call requested for Brc1cc(Br)c2c(c1)CN(C1CCCCC1)CO2 (tested in a mixture with another compound)
Result: inactive

Q: Hi, do you know how CCN(CC)CCNc1cccc(Cl)c1 came out in this test?
Result: inactive

Q: Please let me know the test result on file for CC(=O)N=C1N(/C=C2\C(=O)Oc3ccccc3C2=O)C(=O)/C(=C/c2ccc(NC(C)=O)cc2)N1C .
Result: inactive

Q: What did the test return for COC(Cc1cc(C(O)(c2ccc(C(C)(C)C)cc2)c2cc(CC(OC)(c3cc(C(OC)(c4ccc(C(C)(C)C)cc4)c4ccc(C(C)(C)C)cc4)c(C)cc3C)c3cc(C(OC)(c4ccc(C(C)(C)C)cc4)c4ccc(C(C)(C)C)cc4)c(C)cc3C)c(C)cc2C)c(C)cc1C)(c1cc(C(OC)(c2ccc(C(C)(C)C)cc2)c2ccc(C(C)(C)C)cc2)c(C)cc1C)c1cc(C(OC)(c2ccc(C(C)(C)C)cc2)c2ccc(C(C)(C)C)cc2)c(C)cc1C ?
Result: inactive

Q: What classification did CC(C)(NC(=O)c1ccccc1)NC(=O)c1ccccc1 end up with in this test?
Result: inactive

Q: Given CCCCCCCCCCCCCCCO , state the outcome it received in this test.
Result: inactive

Q: Hi, do you know how CC1(C)[C@H](C(=O)O)N2C(=O)[C@@H](NC(=O)C(c3ccccc3)c3ccccc3)[C@H]2S1=O (some centres undefined) came out in this test?
Result: inactive

Q: Call for entry O=C(CC(O)(C(F)(F)F)C(F)(F)F)c1ccc(Br)cc1 :
Result: inactive

Q: For O=C(CN1C(=O)CC(NC(=O)OCc2ccccc2)C1=O)NCC(=O)Oc1ccc([N+](=O)[O-])cc1 (centres undefined) , what call appears in the results of this test?
Result: inactive

Q: So what was the verdict on COc1ccc(C2=Nc3cccc4c3N(CCC4)C2c2ccc(OC)cc2)cc1 (centres undefined) in this test?
Result: inactive

Q: Each compound tested received a call. Report the one for CC(O)C(C)(C)[N+](=O)[O-] (centres undefined) .
Result: inactive

Q: # lookup: test call for O=S(=O)(O)CCNC(=S)C(=S)NCCS(=O)(=O)O
Result: inactive

Q: Please let me know the test result on file for O=C1NC(=O)C(CN2C(=O)/C(=C/c3cccc(O)c3)SC2=S)C(=O)N1 .
Result: inactive

Q: Would you mind telling me which call this test gave N#Cc1ccc(Nc2cnc3ccc(N)cc3n2)cc1 ?
Result: inactive

Q: Identify the outcome logged in this assay for the compound shown: CCN=C(NCC)N(CC)CC
Result: inactive

Q: Per the records of this test, what outcome belongs to COc1ccc(/C=N/NC(=O)/C(C#N)=C/c2ccc(OC)cc2)cc1 ?
Result: inactive

Q: Status in this test for Nc1cccc2c1C(=O)c1c(N)cccc1C2=O ?
Result: active

Q: Field: outcome | Entry: CNC(C#N)c1ccco1 (centres undefined)
Result: inactive
